assay: in vivo; details: female, BALB/c nude, mouse, eye region (fluorescence signal), iv, 20 μg/200 μl

| ITEM_SMILES | Tmax |
| --- | --- |
| CC1(C)C(/C=C/C=C/C=C/C=C2\N(CCCCS(=O)(=O)O)c3ccc4ccccc4c3C2(C)C)=[N+](CCCCS(=O)(=O)[O-])c2ccc3ccccc3c21 | 2 min |

###

assay: in vivo; conditions: female, BALB/c nude, mouse, eye region (fluorescence signal), iv, 20 μg/200 μl
ASSAY_ENDPOINT: half-life (min)

| ITEM_SMILES | REPORTED_VALUE |
| --- | --- |
| CC1(C)C(/C=C/C=C/C=C/C=C2\N(CCCCS(=O)(=O)O)c3ccc4ccccc4c3C2(C)C)=[N+](CCCCS(=O)(=O)[O-])c2ccc3ccccc3c21 | 6.6 |

###

assay: in vivo; details: BALB/c nude, mouse, eye (fluorescence signal intensity in the eye region), iv, 20 μg/200 μl

| ITEM_SMILES | half-life / min |
| --- | --- |
| CC1(C)C(/C=C/C=C/C=C/C=C2\N(CCCCS(=O)(=O)O)c3ccc4ccccc4c3C2(C)C)=[N+](CCCCS(=O)(=O)[O-])c2ccc3ccccc3c21 | 5.4 |

###

assay: in vivo; conditions: BALB/c nude, mouse, eye (fluorescence signal intensity in the eye region), iv, 20 μg/200 μl

| COMPOUND | Tmax / min |
| --- | --- |
| CC1(C)C(/C=C/C=C/C=C/C=C2\N(CCCCS(=O)(=O)O)c3ccc4ccccc4c3C2(C)C)=[N+](CCCCS(=O)(=O)[O-])c2ccc3ccccc3c21 [ICG, Indocyanine green] | 1.2 |
